- Tested on: hiPSC-CMs (iCell-Cardiomyocytes^2)
- assay.explanation: MEA impedance (cytotoxicity readout) in hiPSC-CMs
- setup.conditions: 1 µM, 72h
Could you please report measured Imp (impedance), % change from baseline for the items listed next?

q: Under hiPSC-CMs (iCell-Cardiomyocytes^2): Imp (impedance), % change from baseline value of CC(C)(Sc1cc(C(C)(C)C)c(O)c(C(C)(C)C)c1)Sc1cc(C(C)(C)C)c(O)c(C(C)(C)C)c1 ?
a: -8±3%

q: # returns recorded Imp (impedance), % change from baseline (system: hiPSC-CMs (iCell-Cardiomyocytes^2)) for COc1cc2c(Nc3ccc(Br)cc3F)ncnc2cc1OCC1CCN(C)CC1
a: -20±4 %

q: I'm curious: which Imp (impedance), % change from baseline was measured for C[C@H](CS)C(=O)N1CCC[C@H]1C(=O)O tested on hiPSC-CMs (iCell-Cardiomyocytes^2)?
a: -2±3%
